System: RPMI-8226 leukemia
procedure-text: NCI-60 one-dose screen, 48 h (100 = growth as untreated, 0 = no growth, -100 = all killed)
setup-conditions: 10 µM unless noted
Compounds without any hit were thinned out: in the full panel of roughly 83,000, 20% have a hit.
measure-name: growth (%)

molecule	measure-name	reported
COc1cccc(-n2cc(-c3nc(Cl)c4ccccc4n3)nn2)c1	growth	97.7
COc1cc(C(=O)CCCl)ccc1O	growth	92
COc1cccc2nc(Nc3ccc(NC(=O)c4ccc5ncccc5c4)cc3)ccc12	growth	33.4
O=C(CNc1ccc(Cl)cc1)Nc1ccc(-c2nc3ccccc3s2)cc1	growth	46
CCN(CC)CCCC(C)N=c1cc(Nc2cc(=NC(C)CCCN(CC)CC)c3cc(OC)ccc3o2)oc2ccc(OC)cc12 (centres undefined)	growth	-38.3
COc1ccc(C2SCC(=O)N2NC(=O)c2ccc(NC(=O)c3ccccn3)cc2)cc1OC (centres undefined)	growth	96.3
CCC(c1cccc(Br)c1)C(C(=O)O)c1ccc(OC)cc1 (centres undefined)	growth	101
COc1ncc(-c2ccc3ncnc(Nc4cccc(Cl)c4)c3c2)cc1N(S(C)(=O)=O)S(C)(=O)=O	growth	55.8
CCC(=O)Oc1ccc2c(c1)CC[C@@H]1[C@@H]2CC[C@]2(C)C[C@H](OC(=O)CC)C[C@@H]12	growth	67
Clc1ccc([I+]c2ccc(Cl)cc2Cl)c(Cl)c1	growth	-25.7
O=C(Nc1cccc(Cl)c1)c1cc([N+](=O)[O-])ccc1O	growth	25.4
CC[C@]1(O)C[C@@H]2CN(Cc3c([nH]c4ccccc34)[C@@](C(=O)OC)(c3cc4c(cc3OC)N(C)[C@H]3[C@@](O)(C(=O)OC)[C@H](OC(C)=O)[C@]5(CC)[C@@H]6C[C@@H]6CN6CC[C@]43[C@@H]65)C2)C1	growth	48.8
C=C1C(=O)O[C@H]2[C@H]1CC/C(COC(=O)NCc1ccc(OC)cc1)=C\CC[C@@]1(C)O[C@@H]21	growth	25.8
Cc1nc(Nc2cccnc2)sc1C(=O)/C=C/c1ccc(F)cc1	growth	1.5
COc1cc(/C=C2\CCCC3=C2N=C2SC(C)=NN2C3c2cc(OC)c(OC)c(OC)c2)cc(OC)c1OC (centres undefined)	growth	-25.6
CC(C)C[C@H](NC(=O)[C@H](Cc1ccccc1)n1ccc(N2CCCCC2)cc1=O)B(O)O	growth	-10.5
Nc1c(C(=O)Nc2ccccc2)sc2nc3c(cc12)CN(Cc1ccccc1)CC3	growth	79.6
NS(=O)(=O)c1ccc(NCC(=O)Nc2ccc(-c3nc4ccccc4s3)cc2)cc1	growth	36.7
COc1cccc(-c2nc3sccn3c2-c2ccnc(NCCCNS(=O)(=O)c3ccc(F)cc3)n2)c1	growth	17.4

---

Tested on: UO-31 renal
procedure-text: NCI-60 one-dose screen, 48 h (100 = growth as untreated, 0 = no growth, -100 = all killed)
setup-conditions: 10 µM unless noted
Compounds without any hit were thinned out: in the full panel of roughly 83,000, 20% have a hit.

molecule	growth, %
COc1cc(NC(=O)CCl)ccc(=O)c1	64.3
CCOC(=O)c1cc(/C(=N\O)c2cc(OC)c(OC)c(OC)c2)n2c(C)cccc12	54
Cc1ccc(OCCn2c(C)nn(-c3ccc(Cl)cc3)c2=O)cc1	83.9
COc1cc(-c2csc(NC(=O)Nc3ccc(Cl)cc3Cl)n2)cc(OC)c1OC	34.6
Cc1ccc2c(c1)C(C)Cc1c(N(C)C)ncnc1N2C (stereo unspecified)	59.1
C=C1C(=O)O[C@H]2[C@H]1CC/C(COC(=O)NCCc1ccc(Br)cc1)=C\CC[C@@]1(C)O[C@@H]21	-20.5
O=C(CNc1ccc(Cl)cc1)Nc1ccc(-c2nc3ccccc3s2)cc1	65
CCN1C(=O)/C(=c2\sc3n(c2=O)C2C(NN=3)N(CC)C(=S)N2CC)c2ccccc21 (stereo unspecified)	81.2
O=c1oc2cc(OS(=O)(=O)c3ccccc3)c(Cl)cc2c2c1CCCCCC2	71.5
COc1ncc(-c2ccc3ncnc(Nc4cccc(Cl)c4)c3c2)cc1NS(=O)(=O)CCN1CCOCC1	-8.52
COc1cc(C(=O)CCCl)ccc1O	90.9
